Reported A3 (EC50 values as a ratio of that of NECA) by item:
- ASSAY_TARGET: Adenosine 3 receptor (Homo sapiens, UniProt P0DMS8)
- Construct: expressed in transfected cells; host or cells: Chinese hamster ovary (CHO) cells, co-transfected with a CRE-SPAP reporter
- Sequence (P0DMS8 1-318): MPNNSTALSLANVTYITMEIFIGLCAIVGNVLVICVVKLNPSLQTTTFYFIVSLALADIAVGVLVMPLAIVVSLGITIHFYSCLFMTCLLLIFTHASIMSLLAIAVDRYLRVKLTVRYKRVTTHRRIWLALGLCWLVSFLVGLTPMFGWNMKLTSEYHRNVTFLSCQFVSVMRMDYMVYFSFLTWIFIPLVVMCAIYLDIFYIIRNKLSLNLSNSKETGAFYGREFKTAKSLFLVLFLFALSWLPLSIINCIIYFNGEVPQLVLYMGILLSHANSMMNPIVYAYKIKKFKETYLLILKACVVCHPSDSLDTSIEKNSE
- EXPERIMENT_DESCRIPTION: Agonist activity against adenosine 3 receptor subtype (CHO cells, forskolin-enhanced cAMP, SPAP reporter)
- Assay type: cell-based
- CONDITIONS: EC50 ratio to NECA; transfected CHO cells, forskolin-enhanced cAMP reflected by SPAP
MEASUREMENT_LABEL: A3 (EC50 values as a ratio of that of NECA)

1) CCC(CC)Nc1nc(NCCc2cn(C)cn2)nc2c1ncn2[C@@H]1O[C@H](c2cc(C(C)O)no2)[C@@H](O)[C@H]1O.O=CO.O=CO (stereo partly drawn); >525
2) CCc1cc(C2OC(n3cnc4c(NC(CC)CC)nc(NC5CCC(N)CC5)nc43)C(O)C2O)on1.O=CO.O=CO (stereo not drawn); >85
3) CCc1cc([C@H]2O[C@@H](n3cnc4c(NCC(c5ccccc5)c5ccccc5)nc(NCCO)nc43)[C@H](O)[C@@H]2O)on1.O=CO; >267

Reference for the values: patent US6762170B1
